experiment: NCI Yeast Anticancer Drug Screen. Data for the cln2 rad14 strain (AID 165);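 further: 0% = growth equal to vehicle treated cultures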; settings: S. cerevisiae cln2 rad14 strain, at 50.0 µM, hits give high values
About 79,000 compounds went through this panel and 15% of them were active in at least one assay; those are over-represented in the sample as a whole.
Measurement name: growth inhibition (%)
Please state the figure in %; there is no need to write the unit.

Value of measured growth inhibition for the entry O=C(COc1ccccc1)Oc1c(Cl)c(Cl)c(Cl)c(Cl)c1Cl : 96

Value of measured growth inhibition for the entry CC(=O)Nc1ccc(N=C2c3ccccc3-c3ccc(NC(C)=O)cc32)cc1 : 43.4

Value of measured growth inhibition for the entry O=C(O)c1cccc(S(=O)(=O)NN2C(=O)CSC2c2c(O)ccc3ccccc23)c1 (stereo not given) : 36.9

Value of measured growth inhibition for the entry O=[N+]([O-])c1cc(Cl)cc(C(c2cc(Cl)cc([N+](=O)[O-])c2O)C(Cl)(Cl)Cl)c1O : 97

Now consider a different molecule.
Value of measured growth inhibition for the entry Cc1cc(C)nc(NS(=O)(=O)c2ccc(Nc3nc(-c4cccc([N+](=O)[O-])c4)cs3)cc2)n1 : 51.9

* * *

test: NCI Yeast Anticancer Drug Screen. Data for the bub3 strain (AID 167); details: S. cerevisiae bub3 mutant strain, at 50.0 µM (retest, dose inferred, filed as 5.0)
Compounds without any hit were thinned out: in the full panel of roughly 79,000, 15% have a hit. The source made the active and inactive calls. Cut-off read from the data, not from the text of the source: active = growth inhibition above about 70%; inactive = the rest.
Output constraint: value belongs to active, inactive

Answered examples (2):
Req: Can you look up the reported call for CCC[CH2][Sn]([CH2]CCC)([O]C(=O)c1cc(OC)c(OC)cc1OC)[O][Sn]([CH2]CCC)([CH2]CCC)[O]C(=O)c1cc(OC)c(OC)cc1OC for me?
Resp: active

Req: Can you look up the reported call for O=C(COc1ccccc1)Oc1c(Cl)c(Cl)c(Cl)c(Cl)c1Cl for me?
Resp: active

Continuing:
Req: Can you look up the reported call for CC(C)SC(=S)S(=O)(=O)c1ccc(Cl)cc1 for me?
Resp: active

Req: Can you look up the reported call for O=C1CCC(Cc2ccc(Cl)cc2Cl)C(=O)N1 (stereo not given) for me?
Resp: inactive

Req: Can you look up the reported call for CC(C)(C)C(=O)OC12/C(=N/O)CCCCCC1c1ccccc12 (stereo not given) for me?
Resp: active

Req: Can you look up the reported call for CCC1=CCC2C(=O)c3cc4ccccc4cc3C(=O)C2C1 (stereo not given) for me?
Resp: inactive

Req: Can you look up the reported call for CC#CCCCCOC(=O)c1cc([N+](=O)[O-])cc([N+](=O)[O-])c1 for me?
Resp: active

Req: Can you look up the reported call for CCCCN(CCCC)CC(O)c1ccc(CCc2ccccc2)cc1 (stereo not given) for me?
Resp: active

Req: Can you look up the reported call for ClCc1ccccc1Cc1ccccc1 for me?
Resp: inactive

Req: Can you look up the reported call for O=C([O][Sb]([O]C(=O)C(Cl)(Cl)Cl)([c]1ccccc1)([c]1ccccc1)[c]1ccccc1)C(Cl)(Cl)Cl for me?
Resp: active

* * *

experiment: NCI Yeast Anticancer Drug Screen. Data for the cln2 rad14 strain (AID 165);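 further: 0% = growth equal to vehicle treated cultures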; details: S. cerevisiae cln2 rad14 strain, at 5.0 µM (retest, dose inferred, filed as 0.5)
About 79,000 compounds went through this panel and 15% of them were active in at least one assay; those are over-represented in the sample as a whole. Active and inactive are the calls of the source. No stated cut-off is given here; in the data, active means growth inhibition above about 70%; inactive means the rest.
Output constraint: value belongs to 1 for active, -1 for inactive

Answered examples (10):
Req: Can you look up the reported call for CS(=O)(=O)c1ccc(C[N+]23CN4CN(CN(C4)C2)C3)cc1 for me?
Resp: -1

Req: Can you look up the reported call for CCCCC(CC)CNc1ncnc2c1cnn2C (centres undefined) for me?
Resp: -1

Req: Can you look up the reported call for Cc1ccc2c(n1)C(=O)C=CC2=O for me?
Resp: -1

Req: Can you look up the reported call for CC1CCCC(C(O)(C(=O)O)C2CCCC(C)C2)C1 (centres undefined) for me?
Resp: -1

Req: Can you look up the reported call for CCCCOc1ccc(NC(=S)Nc2ccc(OCCN(CC)CC)cc2)cc1 for me?
Resp: -1

Req: Can you look up the reported call for CN(C)C(=S)/N=c1\ssc(=S)n1C for me?
Resp: -1

Req: Can you look up the reported call for CC1CCN(CC(=O)N2c3ccccc3Sc3cc4ccccc4cc32)CC1 for me?
Resp: -1

Req: Can you look up the reported call for CCc1[nH]c2ccccc2c1C(c1c(CC)[nH]c2ccccc12)C1CCCCC1=O (centres undefined) for me?
Resp: -1

Req: Can you look up the reported call for Oc1cccc2c(Br)ccnc12 for me?
Resp: -1

Req: Can you look up the reported call for CCN(CC)CCNc1ccc(C)c2sc3ccc(OC)cc3c(=O)c12 for me?
Resp: -1

Continuing:
Req: Can you look up the reported call for CCN(CC)CCNc1ccc2nnn3c4ccccc4c(=O)c1c23 for me?
Resp: -1

Req: Can you look up the reported call for CCCCc1cc2c(cc1O)CCC1C2CC[C@@]2(C)C1CC[C@@H]2O (some centres undefined) for me?
Resp: -1

Req: Can you look up the reported call for CCCCCCCCCCCCNCCNCCN for me?
Resp: 1

Req: Can you look up the reported call for COC1/C=C\C=C(/C)C(=O)NC2=CC(=O)C(N)=C(CC(C)CC(OC)C(O)C(C)C=C(C)C1OC(N)=O)C2=O (centres undefined) for me?
Resp: -1

Req: Can you look up the reported call for Cn1cnc2[nH]c(Cl)nc(=S)c21 for me?
Resp: -1

Req: Can you look up the reported call for COc1ccc2nc(-c3ccc(Cl)cc3)[nH]c2c1 for me?
Resp: -1

Req: Can you look up the reported call for CN(C)c1cc2c(cc1[N+](=O)[O-])-c1ccccc1C2O (centres undefined) for me?
Resp: -1

Req: Can you look up the reported call for CC(C)NC(=O)CN1C(=O)NC(C)(c2ccccc2)C1=O (centres undefined) for me?
Resp: -1
